# maps each entry to its CC50 at 96 h
- experiment: Cytotoxicity against MT4 cells after 4 days by MTT method
- Type: cell-based
- runParameters: human

>>> print(df.to_string())
                                   compound    resulttype   result
0  Cc1c(C(C)c2c(F)cccc2F)nc(N2CCCC2)[nH]c1=O (stereo not given)  CC50 at 96 h  > 78 µM

Cc1c(Cc2c(F)cccc2F)nc(N(C)C2CCCCC2)[nH]c1=O has a reported CC50 at 96 h of > 72 µM

CN(C)c1nc(Cc2c(F)cccc2F)cc(=O)[nH]1 has a reported CC50 at 96 h of > 94 µM

Cc1ccnc2c1NC(=O)c1cccnc1N2C1CC1 has a reported CC50 at 96 h of > 7 µM

CC(C)N(C)c1nc(Cc2c(F)cccc2F)cc(=O)[nH]1 has a reported CC50 at 96 h of 85 µM

* * *

- experimentalSystem: Human immunodeficiency virus type 1 reverse transcriptase (Human immunodeficiency virus 1, UniProt Q72547, V106A)
- experiment: Inhibition of HIV1 reverse transcriptase V106A mutant
resultType: Ki

In [3]: df
Out[3]:
                                   compound  resulttype  result
0  Cc1c(C(C)c2c(F)cccc2F)nc(N(C)C(C)C)[nH]c1=O (stereo not given)          Ki   30 nM
1  CCCN(C)c1nc(C(C)c2c(F)cccc2F)c(C)c(=O)[nH]1 (stereo not given)          Ki   20 nM
2  Cc1c(C(C)c2c(F)cccc2F)nc(SC2CCCC2)[nH]c1=O (stereo not given)          Ki  500 nM
3  Cc1c(C(C)c2c(F)cccc2F)nc(N2CCSCC2)[nH]c1=O (stereo not given)          Ki   30 nM
4  CCC(c1cc(=O)[nH]c(N(C)C)n1)c1c(F)cccc1F (stereo not given)          Ki  140 nM

CCC(c1nc(N(C)C)[nH]c(=O)c1C)c1c(F)cccc1F (stereo not given) has a reported Ki of > 40000 nM

Cc1c(Cc2c(F)cccc2F)nc(N2CCN(c3ccccn3)CC2)[nH]c1=O has a reported Ki of 10 nM

Cc1c(Cc2c(F)cccc2N2CCCC2)nc(N2CCCC2)[nH]c1=O has a reported Ki of 500 nM

Cc1c(Cc2c(F)cccc2F)nc(N2CCN(C)CC2)[nH]c1=O has a reported Ki of 900 nM

Cc1c(Cc2c(F)cccc2F)nc(N2CCOCC2)[nH]c1=O has a reported Ki of 400 nM
